- Measured Target: human TLR9 (Homo sapiens, UniProt Q9NR96)
- Sequence (Q9NR96 26-1032): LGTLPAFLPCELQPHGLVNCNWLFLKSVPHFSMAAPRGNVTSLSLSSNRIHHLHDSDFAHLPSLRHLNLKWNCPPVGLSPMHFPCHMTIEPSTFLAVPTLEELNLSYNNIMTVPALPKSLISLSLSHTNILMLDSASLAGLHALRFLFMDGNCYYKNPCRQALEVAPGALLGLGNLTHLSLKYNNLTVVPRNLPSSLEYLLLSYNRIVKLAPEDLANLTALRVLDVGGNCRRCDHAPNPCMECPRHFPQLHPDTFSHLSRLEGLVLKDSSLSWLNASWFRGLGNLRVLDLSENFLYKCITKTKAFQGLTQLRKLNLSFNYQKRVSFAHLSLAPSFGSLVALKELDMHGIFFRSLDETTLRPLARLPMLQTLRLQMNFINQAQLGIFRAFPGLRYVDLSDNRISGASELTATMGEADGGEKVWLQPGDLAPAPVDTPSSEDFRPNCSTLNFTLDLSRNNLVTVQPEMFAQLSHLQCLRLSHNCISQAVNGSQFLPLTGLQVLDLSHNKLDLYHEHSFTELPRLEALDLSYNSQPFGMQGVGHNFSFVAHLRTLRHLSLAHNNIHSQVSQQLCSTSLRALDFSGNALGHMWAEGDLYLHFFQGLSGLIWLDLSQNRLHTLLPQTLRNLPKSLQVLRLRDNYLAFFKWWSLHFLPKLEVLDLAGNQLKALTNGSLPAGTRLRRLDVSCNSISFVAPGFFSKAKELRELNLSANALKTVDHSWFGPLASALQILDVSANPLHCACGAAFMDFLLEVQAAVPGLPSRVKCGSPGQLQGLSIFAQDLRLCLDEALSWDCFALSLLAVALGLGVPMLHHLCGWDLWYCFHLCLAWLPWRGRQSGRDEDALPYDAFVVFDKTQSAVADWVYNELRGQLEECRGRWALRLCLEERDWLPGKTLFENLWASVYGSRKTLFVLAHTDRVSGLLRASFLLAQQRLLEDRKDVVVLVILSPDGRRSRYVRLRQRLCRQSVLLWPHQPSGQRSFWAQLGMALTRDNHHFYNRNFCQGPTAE
- Experiment Summary: TLR9 inhibition reporter assay (HEK-Blue SEAP reporter, ODN2006 stimulation)
- Conditions: HEK-Blue cells overexpressing human TLR9, SEAP reporter, ODN2006 5 nM, 22 hour incubation
pIC50: −log10 of the molar value.
Mark Not satisfied for pIC50 values under 5, and Satisfied for everything at or above.

Query string: Check the entry Cc1c(-c2[nH]c3ccc(C4CCN(C5COC5)CC4)cc3c2C(C)C)cn(C)c(=O)c1C : does pIC50 equal or exceed 5?
Result string: Not satisfied

Query string: Check the entry CNC(=O)CN1CCC(c2ccc3[nH]c(-c4cn(C)c(=O)c(C#N)c4C)c(C(C)C)c3c2)CC1 : does pIC50 equal or exceed 5?
Result string: Satisfied

Query string: Check the entry Cc1nc(-c2[nH]c3ccc(C4CCN(C(C)C)CC4)cc3c2C(C)C)cn(C)c1=O : does pIC50 equal or exceed 5?
Result string: Satisfied

Query string: Check the entry Cc1c(-c2[nH]c3ccc(C4CCN(CC(=O)N(C)C)CC4)cc3c2C(C)C)cn(C)c(=O)c1C#N : does pIC50 equal or exceed 5?
Result string: Satisfied

Query string: Check the entry CCn1cc(-c2[nH]c3ccc(C4CCN(C(C)C)CC4)cc3c2C(C)C)c(C)c(C)c1=O : does pIC50 equal or exceed 5?
Result string: Satisfied

Query string: Check the entry Cc1cc(-c2[nH]c3ccc(C4CCN(CCC#N)CC4)cc3c2C(C)C)cn(C)c1=O : does pIC50 equal or exceed 5?
Result string: Not satisfied

Query string: Check the entry C=Cc1cc(-c2[nH]c3ccc(C4CCN(CC(=O)N(C)C)CC4)cc3c2C(C)C)cn(C)c1=O : does pIC50 equal or exceed 5?
Result string: Satisfied

Query string: Check the entry COc1c(C)c(-c2[nH]c3ccc(C4CCN(CC(=O)N(C)C)CC4)cc3c2C(C)C)cn(C)c1=O : does pIC50 equal or exceed 5?
Result string: Satisfied

Query string: Check the entry Cc1cc(-c2[nH]c3ccc(C4CCN(CC(O)C(C)(C)C)CC4)cc3c2C(C)C)cn(C)c1=O (stereo not drawn) : does pIC50 equal or exceed 5?
Result string: Satisfied

Query string: Check the entry CCCN1CCC(c2ccc3[nH]c(-c4cc(-c5ccc(NC(C)=O)nc5)c(=O)n(C)c4)c(C(C)C)c3c2)CC1 : does pIC50 equal or exceed 5?
Result string: Satisfied

Query string: Check the entry Cc1cc(-c2[nH]c3ccc(C4CCN(C(=O)CC(C)(C)O)CC4)cc3c2C(C)C)cn(C)c1=O : does pIC50 equal or exceed 5?
Result string: Not satisfied

Query string: Check the entry CC(C)c1c(-c2cc(F)c(=O)n(C)c2)[nH]c2ccc(C3CCNCC3)cc12 : does pIC50 equal or exceed 5?
Result string: Satisfied

Query string: Check the entry CN[C@@H](C)C(=O)N1CCC(c2ccc3[nH]c(-c4cc(C)c(=O)n(C)c4)c(C(C)C)c3c2)CC1 : does pIC50 equal or exceed 5?
Result string: Satisfied
